target: Mast/stem cell growth factor receptor Kit (Homo sapiens); experiment: Inhibition of recombinant human His-tagged cytoplasmic KIT expressed in baculovirus expression system by Z'-LYTE assay
Sequence (P10721 whole entry): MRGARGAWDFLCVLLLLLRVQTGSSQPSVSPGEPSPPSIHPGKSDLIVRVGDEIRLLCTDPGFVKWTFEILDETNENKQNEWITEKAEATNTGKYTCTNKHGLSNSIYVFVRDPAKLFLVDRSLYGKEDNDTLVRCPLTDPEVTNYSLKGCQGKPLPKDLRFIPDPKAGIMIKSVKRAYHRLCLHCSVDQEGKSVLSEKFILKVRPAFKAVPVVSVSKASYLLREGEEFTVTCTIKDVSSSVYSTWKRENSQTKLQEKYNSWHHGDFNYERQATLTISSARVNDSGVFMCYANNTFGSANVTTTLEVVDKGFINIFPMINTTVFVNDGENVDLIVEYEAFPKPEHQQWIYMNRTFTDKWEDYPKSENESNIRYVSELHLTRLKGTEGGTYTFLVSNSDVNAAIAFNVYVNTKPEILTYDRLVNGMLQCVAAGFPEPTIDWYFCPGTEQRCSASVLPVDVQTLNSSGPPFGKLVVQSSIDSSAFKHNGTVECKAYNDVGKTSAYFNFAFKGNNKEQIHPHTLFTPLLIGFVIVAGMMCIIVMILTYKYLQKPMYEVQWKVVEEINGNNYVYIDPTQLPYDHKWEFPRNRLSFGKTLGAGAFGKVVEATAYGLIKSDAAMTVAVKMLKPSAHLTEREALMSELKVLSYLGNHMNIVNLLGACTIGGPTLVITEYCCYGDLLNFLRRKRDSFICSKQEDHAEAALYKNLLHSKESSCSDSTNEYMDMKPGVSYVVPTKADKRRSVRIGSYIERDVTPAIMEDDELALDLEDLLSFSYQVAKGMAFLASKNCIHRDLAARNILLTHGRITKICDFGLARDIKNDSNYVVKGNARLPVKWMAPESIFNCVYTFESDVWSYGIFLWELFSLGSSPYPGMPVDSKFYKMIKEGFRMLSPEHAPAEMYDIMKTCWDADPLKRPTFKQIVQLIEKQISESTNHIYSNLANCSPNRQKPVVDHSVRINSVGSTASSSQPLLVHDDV
IC50 for assorted compounds

Entry under review: Cn1cc(-c2cnc3c(-c4csc(C(=O)NCC(F)(F)F)c4)cnn3c2)cn1 . Reported IC50?
810 nM

Entry under review: Cn1cc(-c2cnc3c(-c4csc(C(=O)N[C@@H]5CCCC[C@@H]5N)c4)cnn3c2)cn1 (racemic) . Reported IC50?
690 nM

Entry under review: Cc1sc(C(=O)N[C@@H]2[C@H](N)CCCC2(F)F)cc1-c1cnn2cc(Cl)cnc12 . Reported IC50?
> 100000 nM

Entry under review: O=C(NCC(F)(F)F)c1cc(-c2cnn3cc(-c4ccc(OCCN5CCCCC5)cc4)cnc23)cs1 . Reported IC50?
2700 nM

* * *

IC50 for assorted molecules
target: Ribosomal protein S6 kinase beta-1 (Homo sapiens); assay: Inhibition of full-length recombinant human GST-tagged RPS6KB1 catalytic domain expressed in baculovirus expression system by Z'-LYTE assay
Sequence (P23443 whole entry, the tested form may be a part): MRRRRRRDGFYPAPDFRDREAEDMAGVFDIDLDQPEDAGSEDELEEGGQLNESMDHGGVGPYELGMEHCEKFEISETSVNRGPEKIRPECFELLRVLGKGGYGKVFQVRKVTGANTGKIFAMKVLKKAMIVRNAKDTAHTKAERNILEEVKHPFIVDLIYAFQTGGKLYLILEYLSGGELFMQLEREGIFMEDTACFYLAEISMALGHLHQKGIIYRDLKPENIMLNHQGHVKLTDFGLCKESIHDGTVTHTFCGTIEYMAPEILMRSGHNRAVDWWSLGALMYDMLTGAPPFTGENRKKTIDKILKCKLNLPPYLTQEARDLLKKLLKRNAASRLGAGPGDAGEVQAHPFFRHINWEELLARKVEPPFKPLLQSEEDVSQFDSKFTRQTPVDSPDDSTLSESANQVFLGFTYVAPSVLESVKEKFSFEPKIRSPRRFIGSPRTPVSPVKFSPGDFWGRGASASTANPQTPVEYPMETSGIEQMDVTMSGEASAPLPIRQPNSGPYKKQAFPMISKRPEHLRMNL
The reply should contain only the number, in nM.

A selection of reference data follows.
| MOLECULE | UNITS_TEXT | ASSAY_RESULT |
| --- | --- | --- |
| Cc1sc(C(=O)N[C@@H]2[C@H](N)CCCC2(F)F)cc1-c1cnn2cc(Cl)cnc12 | nM | 1500 |
| O=C(NCC(F)(F)F)c1cc(-c2cnn3cc(-c4ccc(OCCN5CCCCC5)cc4)cnc23)cs1 | nM | 88 |
| Cn1cc(-c2cnc3c(-c4csc(C(=O)NCC(F)(F)F)c4)cnn3c2)cn1 | nM | 110 |

In the following, a different molecule is considered.
Entry under review: Cn1cc(-c2cnc3c(-c4csc(C(=O)N[C@@H]5CCCC[C@@H]5N)c4)cnn3c2)cn1 (racemic) . Reported IC50?
8

* * *

pIC50 for assorted molecules
molecular target: RAC-gamma serine/threonine-protein kinase (Homo sapiens, UniProt Q9Y243); test: Inhibition of full-length recombinant human His-tagged AKT3 expressed in baculovirus expression system by Z'-LYTE assay
Sequence (Q9Y243 whole entry): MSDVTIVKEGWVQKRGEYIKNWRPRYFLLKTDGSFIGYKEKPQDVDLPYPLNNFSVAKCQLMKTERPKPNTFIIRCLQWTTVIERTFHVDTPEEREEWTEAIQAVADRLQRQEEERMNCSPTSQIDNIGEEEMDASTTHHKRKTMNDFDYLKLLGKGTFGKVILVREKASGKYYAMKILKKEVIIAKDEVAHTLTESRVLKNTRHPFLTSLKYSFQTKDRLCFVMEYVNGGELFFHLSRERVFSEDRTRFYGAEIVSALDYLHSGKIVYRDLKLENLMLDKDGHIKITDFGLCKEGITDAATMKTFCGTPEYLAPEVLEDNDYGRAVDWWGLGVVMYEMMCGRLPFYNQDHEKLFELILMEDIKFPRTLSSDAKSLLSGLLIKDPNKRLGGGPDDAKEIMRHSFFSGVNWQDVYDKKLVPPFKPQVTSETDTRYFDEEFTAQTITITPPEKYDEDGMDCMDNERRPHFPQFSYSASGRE
Reminder that pIC50 means the negative base-10 logarithm of the concentration expressed in mol/L.

Entry under review: Cc1sc(C(=O)N[C@@H]2[C@H](N)CCCC2(F)F)cc1-c1cnn2cc(Cl)cnc12 . Reported pIC50?
5.62

Entry under review: Cn1cc(-c2cnc3c(-c4csc(C(=O)N[C@@H]5CCCC[C@@H]5N)c4)cnn3c2)cn1 (racemic) . Reported pIC50?
6.48

* * *

molecular target: AMP-activated protein kinase (AMPK) alpha-1/beta-1/gamma-1 (Homo sapiens, UniProt P54619+Q13131+Q9Y478); assay: Inhibition of full-length recombinant human GST and His-tagged AMPK alpha1/beta1/gamma1 expressed in baculovirus expression system by LanthaScreen assay
Sequence (P54619 whole entry): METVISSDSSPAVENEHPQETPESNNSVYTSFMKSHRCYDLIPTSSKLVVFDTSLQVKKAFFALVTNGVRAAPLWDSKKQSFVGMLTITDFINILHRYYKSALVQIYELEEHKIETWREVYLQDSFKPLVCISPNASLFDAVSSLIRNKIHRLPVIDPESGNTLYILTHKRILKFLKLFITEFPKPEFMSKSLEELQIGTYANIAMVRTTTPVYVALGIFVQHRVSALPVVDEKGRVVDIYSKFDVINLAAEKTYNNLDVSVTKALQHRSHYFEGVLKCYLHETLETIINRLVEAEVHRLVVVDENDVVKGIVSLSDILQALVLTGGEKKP
Sequence (Q9Y478 whole entry): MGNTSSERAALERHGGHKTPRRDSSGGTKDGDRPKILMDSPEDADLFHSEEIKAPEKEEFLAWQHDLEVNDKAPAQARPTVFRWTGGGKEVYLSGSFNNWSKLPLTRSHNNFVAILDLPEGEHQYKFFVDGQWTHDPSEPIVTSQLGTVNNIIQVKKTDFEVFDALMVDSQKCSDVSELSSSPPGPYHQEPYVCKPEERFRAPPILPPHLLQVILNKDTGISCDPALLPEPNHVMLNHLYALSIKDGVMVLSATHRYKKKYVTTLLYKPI
Sequence (Q13131 whole entry): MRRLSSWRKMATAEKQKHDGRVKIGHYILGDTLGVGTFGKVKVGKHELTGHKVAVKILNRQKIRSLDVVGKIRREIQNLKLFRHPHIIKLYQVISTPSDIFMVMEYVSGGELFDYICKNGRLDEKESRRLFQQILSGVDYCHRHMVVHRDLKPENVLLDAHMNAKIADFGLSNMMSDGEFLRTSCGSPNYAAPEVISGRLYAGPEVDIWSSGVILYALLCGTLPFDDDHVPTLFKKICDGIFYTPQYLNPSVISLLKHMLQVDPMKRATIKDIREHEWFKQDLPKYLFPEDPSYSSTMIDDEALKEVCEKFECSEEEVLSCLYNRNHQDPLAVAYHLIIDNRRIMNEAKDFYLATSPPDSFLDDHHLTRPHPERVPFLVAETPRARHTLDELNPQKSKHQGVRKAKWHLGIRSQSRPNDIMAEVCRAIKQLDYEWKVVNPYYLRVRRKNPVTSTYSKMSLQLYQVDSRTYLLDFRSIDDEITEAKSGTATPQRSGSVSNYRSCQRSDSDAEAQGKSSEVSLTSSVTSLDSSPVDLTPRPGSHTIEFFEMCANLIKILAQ
pIC50 for assorted compounds
Reminder that pIC50 means the negative base-10 logarithm of the concentration expressed in mol/L.

A selection of reference data follows.
| COMPOUND | ASSAY_RESULT |
| --- | --- |
| Cn1cc(-c2cnc3c(-c4csc(C(=O)N[C@@H]5CCCC[C@@H]5N)c4)cnn3c2)cn1 (racemic) | 8.34 |
| Cn1cc(-c2cnc3c(-c4csc(C(=O)NCC(F)(F)F)c4)cnn3c2)cn1 | 7.59 |

Entry under review: Cc1sc(C(=O)N[C@@H]2[C@H](N)CCCC2(F)F)cc1-c1cnn2cc(Cl)cnc12 . Reported pIC50?
7.28

* * *

molecular target: Tyrosine-protein kinase ABL1 (Homo sapiens, UniProt P00519)
ENDPOINT: IC50 (nM)
The reply should contain only the number, in nM.

| MOLECULE | ASSAY_RESULT |
| --- | --- |
| Cc1sc(C(=O)N[C@@H]2[C@H](N)CCCC2(F)F)cc1-c1cnn2cc(Cl)cnc12 | 9100 |

Query the reported IC50 for Tyrosine-protein kinase ABL1 (Homo sapiens, UniProt P00519); item: Cn1cc(-c2cnc3c(-c4csc(C(=O)N[C@@H]5CCCC[C@@H]5N)c4)cnn3c2)cn1 (racemic)
1.3

* * *

pIC50 for assorted compounds
target: Casein kinase I isoform alpha (Homo sapiens); test: Inhibition of recombinant human GST-tagged cytoplasmic CSNK1A1 expressed in baculovirus expression system by Z'-LYTE assay
Sequence (P48729 whole entry, canonical isoform): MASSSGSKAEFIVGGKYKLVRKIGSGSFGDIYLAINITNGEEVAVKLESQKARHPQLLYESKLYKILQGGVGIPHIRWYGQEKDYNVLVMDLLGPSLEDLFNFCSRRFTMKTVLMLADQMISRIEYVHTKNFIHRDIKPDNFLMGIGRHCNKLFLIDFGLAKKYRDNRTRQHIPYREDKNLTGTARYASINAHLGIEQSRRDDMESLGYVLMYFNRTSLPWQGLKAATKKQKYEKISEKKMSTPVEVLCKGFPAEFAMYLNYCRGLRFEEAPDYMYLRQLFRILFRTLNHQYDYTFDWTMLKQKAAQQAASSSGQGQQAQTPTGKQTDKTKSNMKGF
Reminder that pIC50 means the negative base-10 logarithm of the concentration expressed in mol/L.

| COMPOUND | ENDPOINT | ASSAY_RESULT |
| --- | --- | --- |
| Cn1cc(-c2cnc3c(-c4csc(C(=O)NCC(F)(F)F)c4)cnn3c2)cn1 | pIC50 | 6.20 |

Entry under review: Cc1sc(C(=O)N[C@@H]2[C@H](N)CCCC2(F)F)cc1-c1cnn2cc(Cl)cnc12 . Reported pIC50?
4.74

Entry under review: Cn1cc(-c2cnc3c(-c4csc(C(=O)N[C@@H]5CCCC[C@@H]5N)c4)cnn3c2)cn1 (racemic) . Reported pIC50?
5.68

Entry under review: O=C(NCC(F)(F)F)c1cc(-c2cnn3cc(-c4ccc(OCCN5CCCCC5)cc4)cnc23)cs1 . Reported pIC50?
6.64

* * *

Biological target: Testis-specific serine/threonine-protein kinase 1 (Homo sapiens, UniProt Q9BXA7)
Sequence (Q9BXA7 whole entry): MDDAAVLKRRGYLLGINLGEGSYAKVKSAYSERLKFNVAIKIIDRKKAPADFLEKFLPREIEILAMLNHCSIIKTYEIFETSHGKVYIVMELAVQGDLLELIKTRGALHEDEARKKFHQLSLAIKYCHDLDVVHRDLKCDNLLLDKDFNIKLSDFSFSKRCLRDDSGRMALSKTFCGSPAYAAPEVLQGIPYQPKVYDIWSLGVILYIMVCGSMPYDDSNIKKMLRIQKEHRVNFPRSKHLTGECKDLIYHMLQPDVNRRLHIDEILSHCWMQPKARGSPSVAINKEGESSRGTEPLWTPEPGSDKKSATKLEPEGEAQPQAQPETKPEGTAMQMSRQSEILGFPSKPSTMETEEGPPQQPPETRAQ
Test: Inhibition of full-length recombinant human His-tagged STK22D expressed in baculovirus expression system by Z'-LYTE assay
pIC50: −log10 of the molar value.
ENDPOINT: pIC50

A selection of reference data follows.
| MOLECULE | SUBJECT_OF_TEST | ASSAY_RESULT |
| --- | --- | --- |
| Cn1cc(-c2cnc3c(-c4csc(C(=O)N[C@@H]5CCCC[C@@H]5N)c4)cnn3c2)cn1 (racemic) | Testis-specific serine/threonine-protein kinase 1 (Homo sapiens, UniProt Q9BXA7) | > 9.00 |
| O=C(NCC(F)(F)F)c1cc(-c2cnn3cc(-c4ccc(OCCN5CCCCC5)cc4)cnc23)cs1 | Testis-specific serine/threonine-protein kinase 1 (Homo sapiens, UniProt Q9BXA7) | > 8.00 |
| Cc1sc(C(=O)N[C@@H]2[C@H](N)CCCC2(F)F)cc1-c1cnn2cc(Cl)cnc12 | Testis-specific serine/threonine-protein kinase 1 (Homo sapiens, UniProt Q9BXA7) | > 8.00 |

In the following, a different molecule is considered.
Entry under review: Cn1cc(-c2cnc3c(-c4csc(C(=O)NCC(F)(F)F)c4)cnn3c2)cn1 . Reported pIC50?
7.70

* * *

pIC50 for assorted compounds
biological target: RAC-alpha serine/threonine-protein kinase (Homo sapiens, UniProt P31749); experiment: Inhibition of full-length recombinant human His-tagged AKT1-alpha expressed in baculovirus expression system by Z'-LYTE assay
Sequence (P31749 whole entry): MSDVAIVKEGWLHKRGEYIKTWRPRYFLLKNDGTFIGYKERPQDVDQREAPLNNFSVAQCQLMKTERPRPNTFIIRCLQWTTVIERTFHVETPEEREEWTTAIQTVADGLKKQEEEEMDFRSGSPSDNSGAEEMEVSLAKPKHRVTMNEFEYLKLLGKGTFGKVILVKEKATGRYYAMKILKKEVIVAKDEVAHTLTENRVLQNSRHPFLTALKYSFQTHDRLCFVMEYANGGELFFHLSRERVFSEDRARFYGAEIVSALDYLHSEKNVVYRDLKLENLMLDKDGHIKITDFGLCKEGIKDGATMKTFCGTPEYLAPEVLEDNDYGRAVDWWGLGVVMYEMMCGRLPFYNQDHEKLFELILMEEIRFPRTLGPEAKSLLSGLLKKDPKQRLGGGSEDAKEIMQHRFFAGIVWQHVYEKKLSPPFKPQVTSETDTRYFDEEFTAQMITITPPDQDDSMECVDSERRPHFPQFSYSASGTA
Reminder that pIC50 means the negative base-10 logarithm of the concentration expressed in mol/L.

| COMPOUND | ASSAY_RESULT |
| --- | --- |
| Cn1cc(-c2cnc3c(-c4csc(C(=O)N[C@@H]5CCCC[C@@H]5N)c4)cnn3c2)cn1 (racemic) | 7.10 |
| O=C(NCC(F)(F)F)c1cc(-c2cnn3cc(-c4ccc(OCCN5CCCCC5)cc4)cnc23)cs1 | 4.62 |

In the following, a different compound is considered.
Entry under review: Cc1sc(C(=O)N[C@@H]2[C@H](N)CCCC2(F)F)cc1-c1cnn2cc(Cl)cnc12 . Reported pIC50?
6.06

* * *

molecular target: Receptor-type tyrosine-protein kinase FLT3 (Homo sapiens); experiment: Inhibition of recombinant human His-tagged cytoplasmic FLT3 expressed in baculovirus expression system by Z'-LYTE assay
Sequence (P36888 whole entry): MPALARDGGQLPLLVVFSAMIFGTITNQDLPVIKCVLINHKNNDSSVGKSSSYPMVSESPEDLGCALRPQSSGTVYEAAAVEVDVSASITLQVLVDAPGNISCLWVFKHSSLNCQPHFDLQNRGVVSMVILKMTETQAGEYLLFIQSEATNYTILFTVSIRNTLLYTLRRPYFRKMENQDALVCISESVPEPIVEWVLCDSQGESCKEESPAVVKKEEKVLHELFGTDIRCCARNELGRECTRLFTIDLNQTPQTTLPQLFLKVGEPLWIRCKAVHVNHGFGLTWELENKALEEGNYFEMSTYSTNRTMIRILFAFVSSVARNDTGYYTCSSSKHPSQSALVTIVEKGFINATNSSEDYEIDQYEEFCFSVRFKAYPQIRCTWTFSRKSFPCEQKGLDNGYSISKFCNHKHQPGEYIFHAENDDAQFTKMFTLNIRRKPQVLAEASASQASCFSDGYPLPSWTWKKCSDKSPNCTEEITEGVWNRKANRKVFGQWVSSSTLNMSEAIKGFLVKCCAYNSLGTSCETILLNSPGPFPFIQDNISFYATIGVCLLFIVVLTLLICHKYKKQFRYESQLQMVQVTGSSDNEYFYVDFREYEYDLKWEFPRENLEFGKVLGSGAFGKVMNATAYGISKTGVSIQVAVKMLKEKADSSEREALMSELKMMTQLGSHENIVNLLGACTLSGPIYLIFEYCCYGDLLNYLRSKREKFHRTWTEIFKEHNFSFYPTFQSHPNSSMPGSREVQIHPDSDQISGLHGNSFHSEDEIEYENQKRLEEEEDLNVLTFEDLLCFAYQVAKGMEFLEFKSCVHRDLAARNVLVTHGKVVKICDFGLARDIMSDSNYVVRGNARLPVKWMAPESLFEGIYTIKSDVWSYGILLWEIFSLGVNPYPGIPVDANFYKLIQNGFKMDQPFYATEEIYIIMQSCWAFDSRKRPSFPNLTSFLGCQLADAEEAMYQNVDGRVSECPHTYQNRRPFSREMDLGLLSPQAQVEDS
ENDPOINT: IC50 (µM)
The reply should contain only the number, in µM.

| MOLECULE | ASSAY_RESULT |
| --- | --- |
| Cc1sc(C(=O)N[C@@H]2[C@H](N)CCCC2(F)F)cc1-c1cnn2cc(Cl)cnc12 | 0.58 |

Entry under review: Cn1cc(-c2cnc3c(-c4csc(C(=O)N[C@@H]5CCCC[C@@H]5N)c4)cnn3c2)cn1 (racemic) . Reported IC50?
0.0019

* * *

target: Death-associated protein kinase 1 (Homo sapiens); test: Inhibition of recombinant human GST-tagged DAPK1 catalytic domain expressed in baculovirus expression system by Adapta assay
ENDPOINT: IC50 (nM)
The reply should contain only the number, in nM.

| COMPOUND | ASSAY_RESULT |
| --- | --- |
| Cn1cc(-c2cnc3c(-c4csc(C(=O)N[C@@H]5CCCC[C@@H]5N)c4)cnn3c2)cn1 (racemic) | 1.9 |

In the following, a different compound is considered.
Query the reported IC50 for Death-associated protein kinase 1 (Homo sapiens); item: Cc1sc(C(=O)N[C@@H]2[C@H](N)CCCC2(F)F)cc1-c1cnn2cc(Cl)cnc12
26

Source: ChEMBL document CHEMBL4477252
